- METHOD: physchem
- ASSAY_CONTEXT: pH 7.6, Solubility Conc.
Positions of bridges follow the written chain, without caps; N, C: chain ends. Non-standard residues stand in square brackets, D forms with d. Residues, ends and D or L forms follow the SMILES beside them. Groups on a side chain read outwards from the residue. *: point of attachment. Lys(CH2CO2H)2 = N[C@@H](CCCCN(CC(=O)O)CC(=O)O)C(=O)O; C17 diacid = O=C(O)CCCCCCCCCCCCCCCC(=O)*; C16 diacid = O=C(O)CCCCCCCCCCCCCCC(=O)*; hCys = N[C@@H](CCS)C(=O)O; Orn = NCCC[C@H](N)C(=O)O; AEEA = NCCOCCOCC(=O)O
MEASURED_METRIC: solubility (µM)

[[record]]
molecule = "CC(=O)N[C@H]1CCCCNC(=O)C[C@@H](C(=O)N2CCC[C@H]2C(=O)N2CCC[C@H]2C(=O)N[C@@H](Cc2c[nH]cn2)C(=O)N[C@@H](CCC(=O)O)C(=O)N[C@@H](CCCCN(CC(=O)O)CC(=O)O)C(=O)N[C@@H](CCCCNC(=O)COCCOCCNC(=O)CCCCCCCCCCCCCCCC(=O)O)C(N)=O)NC(=O)[C@H](Cc2c[nH]c3ccccc23)NC(=O)[C@H](CCCNC(=N)N)NC(=O)[C@@H](Cc2ccccc2)NC(=O)[C@H](Cc2c[nH]cn2)NC1=O [Example 44] (Ac-KH[dF]RWDPPHE[Lys(CH2CO2H)2]K([AEEA-C17 diacid])-NH2; lactam 1-6)"
quantitative_readout = 407

[[record]]
molecule = "CC(=O)N[C@H]1CCCNC(=O)C[C@@H](C(=O)N2CCC[C@H]2C(=O)N2CCC[C@H]2C(=O)N[C@@H](Cc2c[nH]cn2)C(=O)N[C@@H](CCC(=O)O)C(=O)N[C@@H](CCCCN(CC(=O)O)CC(=O)O)C(=O)N[C@@H](CCCCNC(=O)COCCOCCNC(=O)CCCCCCCCCCCCCCC(=O)O)C(N)=O)NC(=O)[C@H](Cc2c[nH]c3ccccc23)NC(=O)[C@H](CCCNC(=N)N)NC(=O)[C@@H](Cc2ccccc2)NC(=O)[C@H](Cc2c[nH]cn2)NC1=O [Example 51] (Ac-[Orn]H[dF]RWDPPHE[Lys(CH2CO2H)2]K([AEEA-C16 diacid])-NH2; lactam 1-6)"
quantitative_readout = 485

[[record]]
molecule = "CC(=O)N[C@H]1CCSSC[C@@H](C(=O)N[C@@H](CO)C(=O)N2CCC[C@H]2C(=O)N[C@@H](CCCCN)C(=O)N[C@@H](CCC(=O)O)C(=O)N[C@@H](CCCCN(CC(=O)O)CC(=O)O)C(=O)N[C@@H](CCCCNC(=O)COCCOCCNC(=O)CCCCCCCCCCCCCCC(=O)O)C(N)=O)NC(=O)[C@H](Cc2c[nH]c3ccccc23)NC(=O)[C@H](CCCNC(=N)N)NC(=O)[C@@H](Cc2ccccc2)NC(=O)[C@H](Cc2c[nH]cn2)NC1=O [Example 60] (Ac-[hCys]H[dF]RWCSPKE[Lys(CH2CO2H)2]K([AEEA-C16 diacid])-NH2; disulfide 1-6)"
quantitative_readout = 456

